Molecular target: T1, recombinant human sPLA2-GIB (mature secreted form of group IB pancreatic phospholipase A2) (human, UniProt P04054 23-148)
T1 construct: Genbank NP_000919 printed for human PLA2-GIB; also called sPLA2-IB; mature sPLA2-GIB
T1 sequence (P04054 23-148): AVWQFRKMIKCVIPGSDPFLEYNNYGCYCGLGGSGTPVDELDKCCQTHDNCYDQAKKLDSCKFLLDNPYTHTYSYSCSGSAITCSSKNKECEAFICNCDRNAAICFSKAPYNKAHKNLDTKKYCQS
Assay: competition ELISA on coated sPLA2-IB; competitor biotinylated 7A10
measured_quantity: percentage of signal (%)
Respond numerically; units are % and should not be typed.

Study these solved cases before continuing.
{"columns": ["binder", "measured_quantity", "result_unit", "result_number"],
 "data": [
  ["#22C6 (antibody, IgG2a, V domains shown) VH: EVQLQESGPGLVKPSQTVSLNCTVTGHSITDDNYYWSWIRLVSGSKLEWIGYITSAGNTDNNPSLKSRISITRDISKNQFFLHLSSVTAEDTATYYCARDSTDGDFYFEKWGQGTTLTVSS VL: EIVLTQSPTTMAASPGEKITITCSVSSSISPNFLHWYQQKPGFSPKLLIFRTSNLASGVPTRFSGSGSGTSYSLTIGTMEAEDVATYYCHQGNSLPLTFGAGTKLELKR", "percentage of signal", "%", 53],
  ["#24B2 (antibody, IgG2a, V domains shown) VH: DVQVQESGPGLVKPSQTVSLNCTVTGHSITDDNYYWSWIRLVSGSKLEWIGYITSSGSTDINPSLKSRISITRDISKNQFFLHLNSVTAEDTATYYCARDSTDGDFYFEKWGQGTTLTVSS VL: DIVLTQSPASLAVSLGQRATISCRASESVDNYGISFMHWYQQKPGQPPKLLIYRASNLESGIPARFSGSGSRTDFTLTINPVETDDVATYYCQQSSRDLFTFGGGTKLEIKR", "percentage of signal", "%", 65]
]}

We next turn to a different binder, shown below.
## Task Given #14G9 (antibody, IgG1, V domains shown, also called monoclonal antibody 14G9; #14G9 mAb) VH: QVQLQQPGAELVKPGASVKLSCKASGYTFTNYWIHWVKRRPGQGLEWIGNIDPSDTRTHYNQKFKDKATLAVDKSSSTAYMQLSSLTSEDSAVFYCARQTLYYEALDYWGQGTTLTVSS VL: DIVMTQSHKLMSTSVGDRVSITCKASQDVSTAVAWYQEKPGQSPKLLIYWASTRHTGVPNRFTGSRSGTDYTLTISSVQAEDLALYYCQQDYSTPPTFGAGTKLELKR , state its recorded percentage of signal.
## Result 12
